Biological target: DppA (Rv3666c), substrate-binding protein of the Dpp transporter (Mycobacterium tuberculosis)
Sequence (I6X811 entry or part of it): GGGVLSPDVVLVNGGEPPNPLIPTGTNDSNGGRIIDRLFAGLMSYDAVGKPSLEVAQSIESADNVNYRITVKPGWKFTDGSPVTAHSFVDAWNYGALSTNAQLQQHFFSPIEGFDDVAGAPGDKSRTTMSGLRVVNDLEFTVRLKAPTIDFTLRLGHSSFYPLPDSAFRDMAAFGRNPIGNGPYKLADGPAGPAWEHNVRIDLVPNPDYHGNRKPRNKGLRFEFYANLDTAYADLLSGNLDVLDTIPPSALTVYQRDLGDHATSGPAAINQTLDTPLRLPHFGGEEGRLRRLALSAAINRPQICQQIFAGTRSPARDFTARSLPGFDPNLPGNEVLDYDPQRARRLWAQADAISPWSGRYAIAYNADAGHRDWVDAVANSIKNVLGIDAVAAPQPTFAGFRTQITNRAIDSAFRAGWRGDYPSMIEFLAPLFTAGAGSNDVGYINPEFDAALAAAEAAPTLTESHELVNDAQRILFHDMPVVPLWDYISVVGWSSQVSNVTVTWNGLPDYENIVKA
pKd: −log10 of the molar value.
result.type: pKd

Problem: Give the value of pKd reported for the following: C=CC1=C(C)C2=Cc3c(C=C)c(C)c4[n]3[Fe]([Cl])[n]3c(c(C)c(CCC(=O)O)c3=CC3=NC(=C4)C(C)=C3CCC(=O)O)=CC1=N2
Solution: ~5.82
